The origin of these recorded values is patent US20140135310A1.

target: 5-HT2C serotoninergic receptors (Homo sapiens, UniProt P28335); test: Cellular functional assay, 5-HT2C serotoninergic receptors; assay type: cell-based; details: agonist mode; percent of control specific agonist response; note: test concentration or dose not given here
Sequence (P28335 33-458): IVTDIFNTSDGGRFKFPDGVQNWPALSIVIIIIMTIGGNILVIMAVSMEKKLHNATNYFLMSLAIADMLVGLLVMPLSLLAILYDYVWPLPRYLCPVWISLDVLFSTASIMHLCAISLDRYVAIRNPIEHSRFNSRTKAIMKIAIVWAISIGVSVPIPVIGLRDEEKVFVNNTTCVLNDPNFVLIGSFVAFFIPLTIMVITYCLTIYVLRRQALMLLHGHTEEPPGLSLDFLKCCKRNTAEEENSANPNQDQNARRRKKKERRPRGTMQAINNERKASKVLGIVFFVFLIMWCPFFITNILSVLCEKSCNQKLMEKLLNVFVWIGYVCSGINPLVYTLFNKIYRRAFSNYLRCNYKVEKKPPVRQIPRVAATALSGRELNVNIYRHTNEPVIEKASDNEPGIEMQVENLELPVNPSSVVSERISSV
property: 5-HT2C ag [%] (%)

molecule="CC(C)(C)c1ccc(S(=O)(=O)NCC2CN(CCOc3cccc4c3OCCO4)C2)cc1 [Compound 181]" quantitative_result=46
molecule="O=S(=O)(NCC1CN(CCOc2cccc3ccccc23)C1)c1ccc2ccccc2c1 [Compound 122]" quantitative_result=78
molecule="COc1ccc2cc(S(=O)(=O)N[C@@H]3CCN(CCCc4noc5cc(F)ccc45)C3)ccc2c1 [Compound 230]" quantitative_result=−2
molecule="O=S(=O)(NC1CN(CCOc2cccc3c2OCCO3)C1)c1cccc2ccccc12 [Compound 94]" quantitative_result=92
